target.of.assay: FGFR3 (UniProt P22607)
Sequence (P22607 whole entry, looked up): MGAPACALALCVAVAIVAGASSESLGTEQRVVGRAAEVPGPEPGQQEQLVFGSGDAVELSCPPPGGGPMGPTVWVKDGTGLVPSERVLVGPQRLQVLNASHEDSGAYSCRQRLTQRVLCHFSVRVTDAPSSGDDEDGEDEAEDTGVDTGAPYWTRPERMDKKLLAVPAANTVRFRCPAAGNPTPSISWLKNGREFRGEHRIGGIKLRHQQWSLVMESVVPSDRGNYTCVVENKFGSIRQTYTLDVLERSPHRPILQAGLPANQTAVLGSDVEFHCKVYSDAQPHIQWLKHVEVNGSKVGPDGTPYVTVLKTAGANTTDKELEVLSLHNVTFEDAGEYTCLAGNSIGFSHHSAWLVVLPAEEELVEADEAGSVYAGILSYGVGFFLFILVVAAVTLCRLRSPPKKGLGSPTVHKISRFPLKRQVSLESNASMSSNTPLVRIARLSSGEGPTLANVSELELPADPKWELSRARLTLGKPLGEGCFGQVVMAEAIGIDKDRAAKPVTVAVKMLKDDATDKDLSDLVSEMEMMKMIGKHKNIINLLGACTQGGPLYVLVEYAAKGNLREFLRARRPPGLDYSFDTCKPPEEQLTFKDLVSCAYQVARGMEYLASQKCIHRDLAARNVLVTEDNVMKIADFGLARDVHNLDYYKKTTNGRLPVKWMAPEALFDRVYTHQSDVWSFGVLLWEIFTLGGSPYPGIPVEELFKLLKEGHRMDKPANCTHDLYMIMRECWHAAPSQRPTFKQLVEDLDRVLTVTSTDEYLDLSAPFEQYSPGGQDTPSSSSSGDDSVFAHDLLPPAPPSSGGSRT
run.description: phosphorylation enrichment, bacterial display (enrichment ratio); higher = better substrate or ligand; peptides without Tyr show the background;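 note: 11-residue human phosphosite peptides and single-mutation variants displayed on the E. coli surface, counted by deep sequencing, each peptide's frequency after selection divided by its frequency in the unselected input library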;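 note: frequency after pTyr selection over input frequency; kinase dosed for 20-30% of maximal phosphorylation in three min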
Form field: phosphorylation enrichment (one value per entry).

seq.text	phosphorylation enrichment
LTRDIYKNDYY [ROS1_Y2110_A2106T]	3.61
SVVVPSEPPEV [TP53_Y220_Y220S]	0.755
RHIEKYVDQGK [IRAK3_Y61]	0.633
LERFIYNPEEF [HLA-DPB1_Y59_R61P_YF]	1.71
PVFQVYPLLNC [GATA1_Y78]	1.43
KDHPDYKYQLR [SOX10_Y171_P175L]	0.491
TDISLYPSGGT [TENM4_Y399_V396I]	0.536
VTRLRYPVCFG [ITK_Y336]	0.877
FVSAAYVKKLD [SPTAN1_Y1020_P1017S]	0.455
QISQDYGVLLE [PRDX3_Y172_R170Q]	0.792
APRKVYDTQDD [ZFPL1_Y215_R218Q]	0.653
GFPVHYTDVSN [DNMT3B_Y815]	0.686
PYVYYYSYLLK [PTEN_Y178_R173P]	6.37
NKPTVYGVSPN [ABL1_Y226]	0.446
QLYGAYLRIHA [BSCL2_Y213]	1.12
RPPFTYATLIR [FOXP3_Y342]	0.813
ALEKTYNTYRS [B4GALNT2_Y538]	0.439
KENITYMKREQ [L1TD1_Y24]	0.554
GKVFIYHGSSL [ITGA7_Y458]	0.761
TSYSGYRCHRH [NKAPL_Y94_Y96C]	0.584
EWKNNCPRLRE [OPA1_Y582_Y582C]	0.654
CEDGNYSPEIS [PTDSS1_Y424_T423N]	0.637
QNWELYSEGLG [CNKSR1_Y665_R662W]	0.746
IRRWVYPLTPE [EIF2B5_Y319]	0.613
TKAEKYVNKPK [PLCG1_Y991_A995P]	0.534
PMQMPYDSRWE [PDGFRA_Y582_L580M]	1.1
CTTIHYNFMSN [TP53_Y234_C238S_YF]	0.745
DSASAYADEVK [ETNPPL_Y189]	0.685
DVMDFYKTLRG [NR3C1_Y30]	0.484
HKLSSYEFDFE [BTK_Y40_Y39S_YF]	0.844
GIVTGYLVLKE [DNMT3B_Y588_A585V]	0.895
LVQAEYWHDPI [PPT1_Y185]	2.98
FLAVGYHMPHI [IDS_Y225_K227M]	0.562
PGVDIYVSPNM [PADI3_Y51_I52V]	0.781
RRNTPYSQTMK [TET2_Y819_S817T]	0.431
AAVPAYDKIQV [STXBP2_Y401_R405Q]	0.666
LTAEVYFPSIK [C5orf64_Y60]	1.88
KIFPEYLSNWT [AIFM1_Y347_L344F]	0.721
LDVGEYCVPRG [BEX1_Y43_A40V]	1.23
TDGIAYEFRVT	0.916
RGEEPYTKKAL [TTC21B_Y160_K157E]	0.714
VCHELYNTIRD [PBRM1_Y54]	0.683
RDLRTYIMPAH [PNMT_Y256]	0.518
EEEFEYMNRRR [ERBB3_Y1199_D1194E_YF]	0.767
VRLTEYPCAGL	0.523
PAGSGYPAFLG [ATP6V1A_Y374_D371G_YF]	0.794
GFPVHYTDMSN [DNMT3B_Y815_V818M]	0.501
MEVEQYIFVKC [CYBB_Y324_G322E]	1.99
GYQPDYGQPAG [SYP_Y278]	0.551
ANKNVYEVEPT [MEGF10_Y1075_R1072K]	0.7
PQDVTYAQLHS [LILRB4_Y412]	0.75
EFGEVYKGTLK [EPHA2_Y628_M631T]	0.426
IDDLEYLHSQG [STK11_Y166_G163D]	0.737
EFISEYCGEII [EZH2_Y641]	1.05
EYRFIYMAVQH [PTPN11_Y515_Q510E]	1.71
EPTPSYEVGQR [TSC2_Y1788_G1787S]	0.581
RIAFQYGDTDL [MYBPC3_Y340_V342D]	0.737
FLGKGYSDGGC [MC4R_Y35_S30F]	0.623
